subject.of.test: Tumor necrosis factor (Homo sapiens) (UniProt P01375)
Sequence (P01375 whole entry, looked up): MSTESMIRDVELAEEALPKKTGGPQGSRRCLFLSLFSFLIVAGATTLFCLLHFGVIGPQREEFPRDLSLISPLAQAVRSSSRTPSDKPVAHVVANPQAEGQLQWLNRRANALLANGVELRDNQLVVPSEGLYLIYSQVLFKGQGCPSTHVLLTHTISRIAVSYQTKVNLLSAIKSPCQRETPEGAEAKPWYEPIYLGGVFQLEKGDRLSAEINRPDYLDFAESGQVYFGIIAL
measurement.protocol: qHTS assay to identify small molecules that stimulate Tumor Necrosis Factor-alpha (TNF-alpha) secretion (AID 651757)
condition.details: Human cells, HTRF 665/615 ratio; series mostly up to 92.2 µM
Inconclusive results are not listed. Calls of active or inactive are those of the source. Calls come from the whole dose curve; as a rule, active = well fitted curve in the direction sought with a large enough effect in the signal ratio; inconclusive = small, poorly fitted or top-dose-only effect, or a change in a side signal; inactive = no such curve, though single readings can be large or run the other way; the % refers to the signal ratio.
Choose the fitting class; nothing outside active, inactive is accepted.

Example entries and their recorded answers appear below.
[
  {
    "structure.string": "CC[n+]1c(-c2ccccc2)c2cc(N)ccc2c2ccc(N)cc21",
    "answer.label": "active"
  },
  {
    "structure.string": "CCCCCCCCCCCC[N+](C)(C)CCOc1ccccc1",
    "answer.label": "inactive"
  },
  {
    "structure.string": "COP(=O)(OC)OC=C(Cl)Cl",
    "answer.label": "inactive"
  },
  {
    "structure.string": "Oc1c(Br)cc(Br)cc1Br",
    "answer.label": "inactive"
  },
  {
    "structure.string": "CN(C)C(=S)SSC(=S)N(C)C",
    "answer.label": "inactive"
  }
]

Prompt: Hello, I am checking results. What call was entered for O=C(CCl)c1ccc(Cl)cc1Cl ?
Response: inactive
